# kon annotations
Target: T1, Human OSM (human, UniProt P13725 26-221)
T1 construct: Recombinant human OSM; also called hOSM; human Oncostatin M
T1 sequence: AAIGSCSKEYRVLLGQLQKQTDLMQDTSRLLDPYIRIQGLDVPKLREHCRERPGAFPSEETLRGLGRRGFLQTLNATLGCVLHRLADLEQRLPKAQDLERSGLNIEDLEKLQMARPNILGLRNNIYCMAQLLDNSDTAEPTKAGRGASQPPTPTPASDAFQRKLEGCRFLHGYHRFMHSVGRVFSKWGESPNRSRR
Experiment: BIAcore kinetics, purified antibody
MEASURED ENDPOINT: kon (M⁻¹ s⁻¹)

[
  {
    "BINDER": "Humanised 10G8 H2L4 (antibody, V domains shown) VH: EVQLVESGGGLVQPGGSLRLSCAASGFTFSNYAMSWVRQAPGKGLEWVATISDGGSFTYYLDNVRGRFTISRDNAKNSLYLQMNSLRAEDTAVYYCARDVGHTTFWYFDVWGSGTLVTVSS VL: DIVMTQSPDSLAVSLGERATINCRASKSVSAAGYNFMHWYQQKPGQPPKVLIYYASNLESGVPDRFSGSGSGTDFTLTISSLQAEDVVVYYCLHSREFPFTFGGGTNVEIK",
    "VALUE": 380000
  },
  {
    "BINDER": "Humanised 10G8 H0L4 (antibody, V domains shown) VH: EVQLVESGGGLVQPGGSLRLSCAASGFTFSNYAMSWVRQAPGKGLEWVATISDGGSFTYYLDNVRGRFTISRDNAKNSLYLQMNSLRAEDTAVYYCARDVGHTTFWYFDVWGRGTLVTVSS VL: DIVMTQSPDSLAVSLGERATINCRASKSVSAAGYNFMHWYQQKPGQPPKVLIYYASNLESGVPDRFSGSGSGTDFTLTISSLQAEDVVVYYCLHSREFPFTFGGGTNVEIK",
    "VALUE": 374000
  },
  {
    "BINDER": "15E10h, non-competitive anti-OSM humanised antibody (antibody, human IgG1, kappa, V domains shown, also called Humanised 15E10; humanised 15E10) VH: QVQLVESGGGVVQPGRSLRLSCAASGFSLTNYGVHWVRQAPGKGLEWVAVIWRGGSTDYNAAFMSRFTISKDNSKNTLYLQMNSLRAEDTAVYYCAKSPNSNFYWYFDVWGRGTLVTVSS VL: EIVLTQSPATLSLSPGERATLSCSGSSSVSYMYWYQQKPGQAPRLLIEDTSNLASGIPARFSGSGSGTDYTLTISNLEPEDFAVYYCQQWSSYPPTFGQGTKLEIKR",
    "VALUE": 429000
  },
  {
    "BINDER": "Humanised 10G8 H2L1 (antibody, V domains shown) VH: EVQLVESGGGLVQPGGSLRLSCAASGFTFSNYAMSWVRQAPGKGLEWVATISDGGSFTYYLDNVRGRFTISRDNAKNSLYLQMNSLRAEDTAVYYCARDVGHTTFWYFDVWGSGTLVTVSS VL: DIVMTQSPDSLAVSLGERATINCRASKSVSAAGYNFMHWYQQKPGQPPKVLIYYASNLESGVPDRFSGSGSGTDFTLTISSLQAEDVAVYYCLHSREFPFTFGGGTKVEIK",
    "VALUE": 383000
  },
  {
    "BINDER": "Humanised 10G8 H1L4 (antibody, V domains shown) VH: EMQLVESGGGLVQPGGSLRLSCAASGFTFSNYAMSWVRQAPGKGLEWVATISDGGSFTYYLDNVRGRFTISRDNAKNSLYLQMNSLRAEDTAVYYCARDVGHTTFWYFDVWGRGTLVTVSS VL: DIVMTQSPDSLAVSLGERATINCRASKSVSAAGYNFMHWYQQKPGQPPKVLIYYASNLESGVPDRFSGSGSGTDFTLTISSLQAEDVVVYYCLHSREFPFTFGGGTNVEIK",
    "VALUE": 365000
  },
  {
    "BINDER": "10G8 chimaera (antibody, human IgG1, kappa, V domains shown, Mouse V regions on human gamma 1 wild type and human kappa constant regions; the entries called VH/VL domain (chimera) are full chains; also called 10G8 chimera; 10G8 Chimæra) VH: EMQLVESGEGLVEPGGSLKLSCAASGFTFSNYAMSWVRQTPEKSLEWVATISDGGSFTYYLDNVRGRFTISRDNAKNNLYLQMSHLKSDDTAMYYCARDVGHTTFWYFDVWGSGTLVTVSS VL: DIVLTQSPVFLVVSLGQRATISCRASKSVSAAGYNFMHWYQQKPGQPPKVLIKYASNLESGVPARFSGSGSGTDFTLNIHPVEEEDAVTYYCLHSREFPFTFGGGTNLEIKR",
    "VALUE": 241000
  }
]
